- Assay Summary: physchem
- Format: physicochemical
- Test Conditions: phosphate-buffered saline (PBS), pH 7.4, thermodynamic solubility (pH = 7.4), PBS, 37 °C, 24 h, mean of two
Measured solubility thermodynamic at 24 h, listed per entry.
Quantity: solubility thermodynamic at 24 h (µM)

{"columns": ["Compound", "Quantity", "Numeric Value"],
 "data": [
  ["Cc1[nH]c(C(=O)Nc2nc3c(N4CCC(O)CC4)cc(C(=O)O)cc3s2)c(Cl)c1Cl [7p]", "solubility thermodynamic at 24 h", 184],
  ["Cc1[nH]c(C(=O)Nc2nc3c(N4CCOC(C(F)(F)F)C4)cc(C(=O)O)cc3s2)c(Cl)c1Cl (stereo not shown) [7i]", "solubility thermodynamic at 24 h", 10.7],
  ["Cc1[nH]c(C(=O)Nc2nc3c(N4CCC5(CC4)OCCO5)cc(C(=O)O)cc3s2)c(Cl)c1Cl [7r]", "solubility thermodynamic at 24 h", 27],
  ["Cc1[nH]c(C(=O)Nc2nc3c(N4CCOCC4C)cc(C(=O)O)cc3s2)c(Cl)c1Cl (stereo not shown) [7b]", "solubility thermodynamic at 24 h", 68.1]
]}
